- target_entity: T1, recombinant human CD3 epsilon/delta heterodimer (human, UniProt P07766 23-126; P04234 22-105)
- T1 construct: Recombinant protein in solution (200-50 nM) in the Octet assay; also called hCD3 E/D; human CD3E/D
- run_description: Octet BLI, mAb on FAB2G sensor, hCD3 E/D 200-50 nM; R^2 0.98;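 note: antibodies purified from hybridoma supernatants, measured by Octet binding to recombinant human CD3 protein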
readout_name: koff (s⁻¹)
Write the answer as a number in s⁻¹, unit excluded.

Provide only the value of recorded koff for ABL-CD3-62 (antibody, V domains shown, Chimeric hybridoma mAb: human V, CH1, upper hinge; mouse middle hinge, CH2, CH3) VH: EVQLVESGGGLVKPGGSLRLSCAASGFTFSSYSMNWVRQAPGKGLEWVSSISRSSGYIFYADSVKGRFTISRDNAKNSLYLQMNSLRAEDTAVYYCVRERVGAGFDYWGQGTLVTVSS VL: NFMLTQPHSVSESPGKTVAISCTRSSGSIASNYVQWYQQRPGSSPTAVIYEDNQRPSGVPDRFSGSIDSSSNSAFLTISGLKTEDEADYYCQSYDSSNRVFGGGTKLTVL 0.00765
